# Tested on: WI-38 VA13
# assay_details: Cytotoxicity against VA13 cell line; Expressed as effective concentration
# Type: functional, cell-based
# test_conditions: Homo sapiens
Item-by-item account of EC50

- record_smiles: "COc1ccc(OC)c(C(=O)c2oc3cc(-c4ccccc4)cc(O)c3c2C)c1"
  system_under_test: "WI-38 VA13"
  EC50: "0.09 µg/mL"
- record_smiles: "COc1ccc(CCOC(=O)c2oc3cc(-c4ccccc4)cc(O)c3c2C)cc1OC"
  system_under_test: "WI-38 VA13"
  EC50: "0.021 µg/mL"
- record_smiles: "Cc1c(C(=O)OC(C)C)oc2cc(-c3ccccc3)cc(O)c12"
  system_under_test: "WI-38 VA13"
  EC50: "0.06 µg/mL"
- record_smiles: "Cc1c(C(=O)C(C)(C)C)oc2cc(-c3ccccc3)cc(O)c12"
  system_under_test: "WI-38 VA13"
  EC50: "0.41 µg/mL"

# ---- query compound ----
Query EC50 on WI-38 VA13 for Cc1c(C(=O)Cc2ccccc2)oc2cc(-c3ccccc3)cc(O)c12 > 4 µg/mL

* * *

# Test system: WI-38 VA13
# assay_details: Cytotoxicity against VA13 cell line; Expressed as effective concentration
# Type: functional, cell-based
# test_conditions: Homo sapiens
# EC50 listing for each entry below

The examples below pair each entry with its known result.
- record_smiles: "CCOC(=O)c1oc2cc(-c3ccccc3)cc(O)c2c1C"
  value_kind: "EC50"
  measured_result: "0.04 µg/mL"
- record_smiles: "Cc1c(C(=O)O)oc2cc(-c3ccccc3)cc(O)c12"
  value_kind: "EC50"
  measured_result: "> 4 µg/mL"
- record_smiles: "Cc1c(C(=O)c2cccc(CN(C)C)c2)oc2cc(-c3ccccc3)cc(O)c12"
  value_kind: "EC50"
  measured_result: "0.09 µg/mL"
- record_smiles: "CCCCC(=O)c1oc2cc(-c3ccccc3)cc(O)c2c1C"
  value_kind: "EC50"
  measured_result: "2 µg/mL"
- record_smiles: "COc1ccc(C(=O)c2oc3cc(-c4ccccc4)cc(O)c3c2C)c(OC)c1"
  value_kind: "EC50"
  measured_result: "0.04 µg/mL"

Need EC50, item COc1ccccc1C(=O)c1oc2cc(-c3ccccc3)cc(O)c2c1C 0.09 µg/mL

* * *

# System: WI-38 VA13
# assay_details: Cytotoxicity against VA13 cell line; Expressed as effective concentration
# Type: functional, cell-based
# test_conditions: Homo sapiens
// assign t if EC50 falls strictly below 0.3 µg/mL, else f (ties count as f)

Worked examples, 8 compounds total:
- record_smiles: "Cc1c(C(=O)c2cnc3ccccc3c2)oc2cc(-c3ccccc3)cc(O)c12"
  assigned_category: "f"
- record_smiles: "Cc1c(C(=O)C2CCCCC2)oc2cc(-c3ccccc3)cc(O)c12"
  assigned_category: "f"
- record_smiles: "Cc1c(C(=O)c2ccc(F)c(F)c2)oc2cc(-c3ccccc3)cc(O)c12"
  assigned_category: "f"
- record_smiles: "COc1ccc(CCOC(=O)c2oc3cc(-c4ccccc4)cc(O)c3c2C)cc1"
  assigned_category: "t"
- record_smiles: "Cc1ncsc1CCOC(=O)c1oc2cc(-c3ccccc3)cc(O)c2c1C"
  assigned_category: "t"
- record_smiles: "CC(=O)c1oc2cc(-c3ccccc3)cc(O)c2c1C"
  assigned_category: "t"
- record_smiles: "Cc1c(C(=O)c2cccs2)oc2cc(-c3ccccc3)cc(O)c12"
  assigned_category: "f"
- record_smiles: "CCCC(=O)c1oc2cc(-c3ccccc3)cc(O)c2c1C"
  assigned_category: "f"

Please indicate whether the reported EC50 of CCC(=O)c1oc2cc(-c3ccccc3)cc(O)c2c1C is strictly below 0.3 µg/mL. t

# check: EC50 < 0.3 µg/mL for COc1cc(C(F)(F)F)ccc1C(=O)c1oc2cc(-c3ccccc3)cc(O)c2c1C t

EC50 strictly < 0.3 µg/mL for this compound? Cc1c(C(=O)c2ccc(N(C)C)cc2)oc2cc(-c3ccccc3)cc(O)c12 f

* * *

# System: WI-38 VA13
# assay_details: Cytotoxicity against VA13 cell line; Expressed as effective concentration
# Type: functional, cell-based
# test_conditions: Homo sapiens
This listing pairs molecules with measured EC50.

- record_smiles: "Cc1c(C(=O)CCc2ccccc2)oc2cc(-c3ccccc3)cc(O)c12"
  system_under_test: "WI-38 VA13"
  measured_result: "> 4 µg/mL"
- record_smiles: "Cc1c(C(=O)c2ccc(Oc3ccccc3)cc2)oc2cc(-c3ccccc3)cc(O)c12"
  system_under_test: "WI-38 VA13"
  measured_result: "> 4 µg/mL"

Now examine the next entry.
What measured EC50 goes with Cc1c(C(=O)c2ccc(CN(C)C)cc2)oc2cc(-c3ccccc3)cc(O)c12 ? > 4 µg/mL

Hello, the source for this data is ChEMBL document CHEMBL1146838, in case you need it.
